Hello, the source for this data is patent US9750708B2, in case you need it.

# ASSAY_DETAILS: Plasma cysteamine after delivery of cysteamine through a nasoenteric tube into stomach, small intestine or cecum
# Assay type: in vivo
# CONDITIONS_USED: human, other: infused through nasoenteric tube into cecum, 10 mg/kg/dose of base, Mean plasma cysteamine Cmax, combined cystinosis and control subjects, delivery into cecum
MEASUREMENT_TYPE: Cmax (µM)

> print(dat)
            compound  measured.result
1  NCCS [cysteamine]             22.5

###

# ASSAY_DETAILS: Plasma cysteamine after delivery of cysteamine through a nasoenteric tube into stomach, small intestine or cecum
# Assay type: in vivo
# CONDITIONS_USED: human, other: infused through nasoenteric tube into cecum, 10 mg/kg/dose of base, Mean plasma cysteamine Cmax, cystinosis subjects, delivery into cecum
MEASUREMENT_TYPE: Cmax (µM)

> print(dat)
            compound  measured.result
1  NCCS [cysteamine]             21.9
